system: Klebsiella pneumoniae; details: Concentration 20 uM; ASSAY_TEST Inhibition of Bacterial Growth; detection method Absorption (OD600); MEDIA CAMHB; plate type 384well; NBS; CORNING #3640; time 18 hr
Description: Antibacterial activity against Klebsiella pneumoniae MDR ATCC 70063 (CO-ADD:GN_003); MIC in CAMBH media using NBS plates, by OD(600)
Results with a measured potency or affinity are listed apart.
Property: Inhibition (%)
Express the result in % but write the number alone.

Consider the worked cases shown below.
O=C(c1ccc(NCCO)cc1)C1C[C@H]1c1ccc(Cl)cc1 (stereo not given in full) : 5.98
Cc1ccc(NC(=O)c2cc(S(=O)(=O)NC(C)(C)C)ccc2C)nc1 : 13.76

Specify reported Inhibition for the compound shown: Cc1c[nH]c(CCNC(=O)c2cc(-c3ccc(Cl)cc3)cs2)n1
19.09

Specify reported Inhibition for the compound shown: NC(=O)c1cc(Br)ccc1OCCOc1ccccc1
10.17

Specify reported Inhibition for the compound shown: COc1cc(-c2cc(-c3ccc(S(C)(=O)=O)cc3)cnc2N)ccc1O
7.56

Specify reported Inhibition for the compound shown: CN1CCN(S(=O)(=O)c2ccc(-c3ccc4c(Nc5ccc6nn[nH]c6c5)ccnc4c3)cc2)CC1
5.15

Specify reported Inhibition for the compound shown: Cc1nn(C(=O)Nc2cccc(C(F)(F)F)c2)c(C)c1Sc1ncccn1
9.64

====

We begin with a simple list: items and their reported Inhibition.
system: Cryptococcus neoformans; conditions: Concentration 20 uM; ASSAY_TEST Inhibition of Fungal Growth; detection method Resazurin; Absorption (OD600-OD570); plate type 384well; NBS; CORNING #3640
Description: Antifungal activity against Cryptococcus neoformans H99 ATCC 208821 (CO-ADD:FG_002); MIC in YNB media using NBS plates, by Resazurin OD(600-570)
Results with a measured potency or affinity are listed apart.
Express the result in % but write the number alone.

Consider the worked cases shown below.
Clc1ccc(CCNc2cc(-c3ccccc3)nc3ncnn23)cc1 : -16.06
COc1ccc(-c2cnc3cnc(-c4cccc(OC(C)C)c4)cn23)cc1 : -13.72
CCc1ccc([C@@H]2C[C@H](C(F)(F)F)n3ncc(C(=O)NCc4ccc(OC)cc4)c3N2)cc1 : -1.28
Clc1cccc(CO[C@H]2CCc3ccccc3[C@@H]2n2ccnn2)c1 : -3.55
CCCCc1ccc(C(=O)Nc2nccc3ccccc23)nc1 : -8.5

Specify reported Inhibition for the compound shown: O=C(C1CCCCC1)N1CC(=O)N2CCc3ccccc3C2C1 (stereo not given) [PRAZIQUANTEL]
-6.4

====

test system: Cryptococcus neoformans; settings: Concentration 20 uM; ASSAY_TEST Inhibition of Fungal Growth; detection method Resazurin; Absorption (OD600-OD570); plate type 384well; NBS; CORNING #3640
Measured potencies and affinities stand elsewhere.
Property: Inhibition (%)
Express the result in % but write the number alone.

Cc1cc(O)nc(-n2nc(C)cc2C)n1 : -1.19
CCCCN(CCCC)c1c(C#N)cc(S(=O)(=O)Nc2ccccc2)cc1C#N : -9.03
CCOC(=O)c1noc(N)c1-c1ccccc1 : -9.75
N#Cc1ccc(-c2ccc(OCC(N)=O)cc2)cc1 : -13.05
CC(=O)N1CCc2cc3nc(C)cc(C)c3cc21 : -7.03

Field: next molecule
Specify reported Inhibition for the molecule shown: O=C(C1CCN(c2nnc(-n3cccc3)s2)CC1)N1CCC(Cc2ccccc2)CC1
-9.35

====

test system: Cryptococcus neoformans; conditions: Concentration 20 uM; ASSAY_TEST Inhibition of Fungal Growth; detection method Resazurin; Absorption (OD600-OD570); plate type 384well; NBS; CORNING #3640
Potency and affinity values are given separately.
We begin with a simple list: items and their reported Inhibition.
Express the result in % but write the number alone.

Specify reported Inhibition for the molecule shown: C[C@H](C(N)=O)N1CCCC[C@H]1c1ccc(OCc2cccc(F)c2)cc1
-9.53

Specify reported Inhibition for the molecule shown: CNC(=O)c1cc(S(=O)(=O)N2CCN(c3ccccn3)CC2)cs1
-8.81

Specify reported Inhibition for the molecule shown: CC(=O)Nc1ccc(NC(=O)c2cc(-c3cc(Cl)ccc3O)n[nH]2)cc1
0.66

Specify reported Inhibition for the molecule shown: O=C(NCc1ccoc1)N1CCN(Cc2ccc3c(c2)OCO3)CC1
10.58

Specify reported Inhibition for the molecule shown: CCN(CC)C(=O)N1CCN(C)CC1 [DIETHYLCARBAMAZINE]
-5.92

Specify reported Inhibition for the molecule shown: O=C1[C@@H](Oc2ccccc2)[C@@H](c2ccc(Cl)cc2)N1CCn1cnc2c(NCc3ccccc3)ncnc21
-6.99

Specify reported Inhibition for the molecule shown: CC(C)C(NC(=O)Cc1cccc2ccccc12)C(=O)Nc1cccc(C#N)c1 (stereo unspecified)
-4.4

====

tested on: Cryptococcus neoformans; conditions: Concentration 20 uM; ASSAY_TEST Inhibition of Fungal Growth; detection method Resazurin; Absorption (OD600-OD570); plate type 384well; NBS; CORNING #3640
Potency and affinity values are given separately.
Property: Inhibition (%)
Express the result in % but write the number alone.

CC[C@H](CO)NCCN[C@H](CC)CO.Cl.Cl : 1.15
COc1ccc2nc(C)cc(OCC(=O)Nc3ccccc3OC)c2c1 : -5.56
CC(C(=O)N1CCCC1)N1CCN(S(=O)(=O)c2ccc(C(C)(C)C)cc2)CC1 (stereo unspecified) : -10.06
CCOc1ccc(-c2nc(CNCCc3ccc(F)cc3)cs2)cc1 : -5.87
COc1ccc(-c2nnc3ccc(-c4cccc(C(C)C)c4)cn23)cc1OC : -9.03

Field: next compound
Specify reported Inhibition for the compound shown: Cl.O[C@@H](c1cc(C(F)(F)F)nc2c(C(F)(F)F)cccc12)[C@H]1CCCCN1
1.73

====

We begin with a simple list: items and their reported Inhibition.
test system: Cryptococcus neoformans; settings: Concentration 20 uM; ASSAY_TEST Inhibition of Fungal Growth; detection method Resazurin; Absorption (OD600-OD570); plate type 384well; NBS; CORNING #3640
Potency and affinity values are given separately.
Express the result in % but write the number alone.

Consider the worked cases shown below.
c1cc(C2=NCCN2)cc(-c2cc(-c3ccc(C4=NCCN4)cc3)no2)c1 : -10.15
Cl.NCCCC(N)(C(=O)O)C(F)F.O (stereo unspecified) [EFLORNITHINE HYDROCHLORIDE] : -9.22
CCOc1ccc(-c2nc(NC(=O)CS(=O)(=O)c3ccccc3)sc2C)cc1 : -9.26
O=C(c1ccc(F)cc1)N(CCNc1ccccc1)c1ccccc1 : -9.35
Cc1nn(C)cc1C(C)Nc1nncc(-c2ccc(C(F)(F)F)cc2)n1 (stereo unspecified) : -5.79

Look up and report Inhibition, with Cryptococcus neoformans as system, for COc1ccc(CN2CCOc3ccc(C(C)(O)CN(C)C)cc3C2)cc1C (stereo unspecified)
-11.35

Look up and report Inhibition, with Cryptococcus neoformans as system, for CCC(Sc1nc2ccccc2o1)C(=O)Nc1nnc(C)s1 (stereo unspecified)
-9.17

Look up and report Inhibition, with Cryptococcus neoformans as system, for CCn1ncc2c(NC3CCOCC3)c(CNC(=O)c3ccnn3C)c(C)nc21
-8.07

Look up and report Inhibition, with Cryptococcus neoformans as system, for COc1ccc(-c2cnc3ccc(NCc4ccc(S(N)(=O)=O)cc4)nn23)cn1
-9.08

Look up and report Inhibition, with Cryptococcus neoformans as system, for COc1ccc(Oc2ccc([C@@H](C)N(C)c3ncc4c(N)nc(N)nc4n3)cc2)cc1
-6.67

Look up and report Inhibition, with Cryptococcus neoformans as system, for CC(=O)N(CCN(C(=O)c1ccc(F)cc1)c1ccccc1)c1ccccc1
-8.06

Look up and report Inhibition, with Cryptococcus neoformans as system, for Cc1cc(OCC(=O)Nc2ccc(C(C)C)cc2)n(C)c(=O)c1C#N
4.44

Look up and report Inhibition, with Cryptococcus neoformans as system, for Cc1cc2ccccc2n1CC(=O)N1CC(C(=O)N2CCCCC2)Oc2ccccc21 (stereo unspecified)
-5.34

Look up and report Inhibition, with Cryptococcus neoformans as system, for COc1ccc(C2=NN(C3CCCCCC3)C(=O)[C@@H]3CC=CC[C@H]23)cc1OCCCCOc1ccc(-c2nnn[nH]2)cc1
-7.83

====

test system: Klebsiella pneumoniae; conditions: Concentration 20 uM; ASSAY_TEST Inhibition of Bacterial Growth; detection method Absorption (OD600); MEDIA CAMHB; plate type 384well; NBS; CORNING #3640; time 18 hr
Measured potencies and affinities stand elsewhere.
Property: Inhibition (%)
Express the result in % but write the number alone.

Cc1ncc(-c2ccnc(Nc3ccc(S(C)(=O)=O)cc3)n2)n1C(C)C [AZD-5438] : 16.86
Cc1cc(C)nc(-n2nc(C)cc2Nc2ccccc2)n1 : 15.33
Cc1ccccc1CN1CCC(O)(c2ccc(Cl)c(C(F)(F)F)c2)CC1 : 11.69
O=C(C1CCN(c2cc(-n3cccc3)ncn2)CC1)N1CCc2ccccc2C1 : -8.74
CC[C@H](CO)NCCN[C@H](CC)CO.Cl.Cl : 9.73

Specify reported Inhibition for the compound shown: COc1nc2ccc(Br)cc2cc1[C@@H](c1ccccc1)[C@@](O)(CCN(C)C)c1cccc2ccccc12.O=C(O)C(F)(F)F
17.53

Specify reported Inhibition for the compound shown: Cc1cc(C)n2nc(C(=O)Nc3cc(C(F)(F)F)ccc3N3CCOCC3)nc2n1
15.61

Specify reported Inhibition for the compound shown: CCCn1nnc(NC(=O)COc2ccc(C3CCCCC3)cc2)n1
4.73

Specify reported Inhibition for the compound shown: Cc1nn2c(O)c3c(nc2c1-c1ccc(F)cc1)CCCC3
11.6

Specify reported Inhibition for the compound shown: CN1CCCN(C(c2ccccc2)c2ccc(Cl)cc2)CC1 (stereo not given) [HOMOCHLORCYCLIZINE]
10.44
